Tested on: MCF7
Assay: DTP human tumor cell line one-dose prescreen, MCF7
Format: cell-based
Conditions: Concentration (100 μm), Breast MCF7, test/control (T/C)
ATTRIBUTE MEASURED: Percentage Growth Breast MCF7
Give the figure only, with no unit attached.

Guide cases for Percentage Growth Breast MCF7, answers given:
COc1ccc(-c2c(Cl)nc(Cl)nc2-c2ccccc2)cc1: 5
CS(=O)(=O)c1ccc(-c2nc(C(F)(F)F)nc(Cl)c2-c2ccc(F)cc2)cc1: 0
CSc1ccc(-c2c(Cl)nc(Cl)nc2-c2ccccc2)cc1: −1
Clc1ccc(-c2nc(Cl)nc(Cl)c2-c2ccccc2)cc1: 1
Cc1ccc(-c2nc(Cl)nc(Cl)c2-c2ccccc2)cc1: 5

Recorded Percentage Growth Breast MCF7 for Clc1ccc(-c2c(Cl)nc(Cl)nc2-c2ccccc2)cc1 , please? 0

Recorded Percentage Growth Breast MCF7 for CS(=O)(=O)c1ccc(-c2nc(C(F)(F)F)nc(Cl)c2-c2ccccc2)cc1 , please? 0

* * *

System: NCI-H460
Test: DTP human tumor cell line one-dose prescreen, NCI-H460
Format: cell-based
Settings: Concentration (100 μm), Lung NCI-H460, test/control (T/C)
ATTRIBUTE MEASURED: Percentage Growth Lung NCI-H460
Give the figure only, with no unit attached.

CS(=O)(=O)c1ccc(-c2nc(C(F)(F)F)nc(Cl)c2-c2ccc(F)cc2)cc1 [Example 6]: 0

# returns recorded Percentage Growth Lung NCI-H460 (system: NCI-H460) for Clc1ccc(-c2nc(Cl)nc(Cl)c2-c2ccccc2)cc1 [Example 9] 0

# returns recorded Percentage Growth Lung NCI-H460 (system: NCI-H460) for CS(=O)(=O)c1ccc(-c2nc(C(F)(F)F)nc(Cl)c2-c2ccccc2)cc1 [Example 4] 0

# returns recorded Percentage Growth Lung NCI-H460 (system: NCI-H460) for Clc1ccc(-c2c(Cl)nc(Cl)nc2-c2ccccc2)cc1 [Example 10] 0

# returns recorded Percentage Growth Lung NCI-H460 (system: NCI-H460) for COc1ccc(-c2c(Cl)nc(Cl)nc2-c2ccccc2)cc1 [Example 11] 0

# returns recorded Percentage Growth Lung NCI-H460 (system: NCI-H460) for Cc1ccc(-c2nc(Cl)nc(Cl)c2-c2ccccc2)cc1 [Example 8] 1

# returns recorded Percentage Growth Lung NCI-H460 (system: NCI-H460) for CSc1ccc(-c2c(Cl)nc(Cl)nc2-c2ccccc2)cc1 [Example 12] 0

* * *

ATTRIBUTE MEASURED: melting point

Cc1ccc(-c2nc(C(F)(F)F)nc(Cl)c2-c2ccccc2)cc1: 97 to 100 °C
CS(=O)(=O)c1ccc(-c2nc(C(F)(F)F)nc(N=[N+]=[N-])c2-c2ccccc2)cc1: 172 to 175 °C
CS(=O)(=O)c1ccc(-c2nc(C(F)(F)F)nc(NNC(=O)C(F)(F)F)c2-c2ccc(Cl)cc2)cc1: 307 to 309 °C
CSc1ccc(-c2c(NN)nc(Cl)nc2-c2ccccc2)cc1: 272 to 274 °C
Cc1ccc(-c2nc(Cl)nc(Cl)c2-c2ccccc2)cc1: 130 to 132 °C

Recorded melting point for CC(=O)NNc1nc(C(F)(F)F)nc(-c2ccccc2)c1-c1ccccc1 , please? 113 to 116 °C

Recorded melting point for Clc1ccc(-c2nc(Cl)nc(Cl)c2-c2ccccc2)cc1 , please? 129 to 131 °C

Recorded melting point for CS(=O)(=O)c1ccc(-c2nc(C(F)(F)F)nc(NN)c2-c2ccc(Cl)cc2)cc1 , please? 266 to 269 °C

Recorded melting point for CS(=O)(=O)c1ccc(-c2nc(C(F)(F)F)nc(Cl)c2-c2ccccc2)cc1 , please? 156 to 159 °C

Recorded melting point for CS(=O)(=O)c1ccc(-c2nc(C(F)(F)F)nc(N=[N+]=[N-])c2-c2ccc(Cl)cc2)cc1 , please? 317 to 320 °C

* * *

Below, each entry is listed with its recorded melting point.

CC(=O)NNc1nc(C(F)(F)F)nc(-c2ccc(C)cc2)c1-c1ccccc1: 147 to 152 °C

Recorded melting point for [N-]=[N+]=Nc1nc(C(F)(F)F)nc(-c2ccccc2)c1-c1ccccc1 , please? 126 to 128 °C

Recorded melting point for CC(=O)NNc1nc(C(F)(F)F)nc(-c2ccc(S(C)(=O)=O)cc2)c1-c1ccc(Cl)cc1 , please? 254 to 256 °C

Recorded melting point for CS(=O)(=O)c1ccc(-c2nc(C(F)(F)F)nc(NN)c2-c2ccccc2)cc1 , please? 272 to 275 °C

Recorded melting point for CS(=O)(=O)c1ccc(-c2nc(C(F)(F)F)nc(N=[N+]=[N-])c2-c2ccc(F)cc2)cc1 , please? 285 to 288 °C

Recorded melting point for NNc1nc(C(F)(F)F)nc(-c2ccc(F)cc2)c1-c1ccccc1 , please? 175 to 177 °C

Recorded melting point for Cc1ccc(-c2nc(Cl)nc(Cl)c2-c2ccc(Cl)cc2)cc1 , please? 223 to 225 °C

Recorded melting point for CC(=O)NNc1nc(C(F)(F)F)nc(-c2ccc(S(C)(=O)=O)cc2)c1-c1ccccc1 , please? 265 to 268 °C

Recorded melting point for COc1ccc(-c2c(Cl)nc(Cl)nc2-c2ccccc2)cc1 , please? 132 to 134 °C

Recorded melting point for CSc1ccc(-c2c(NN)nc(NN)nc2-c2ccccc2)cc1 , please? 207 to 210 °C

Recorded melting point for O=c1nc(Cl)cc(-c2ccccc2)n1-c1ccccc1 , please? 141 to 143 °C

Recorded melting point for CS(=O)(=O)c1ccc(-c2nc(C(F)(F)F)nc(NN)c2-c2ccc(F)cc2)cc1 , please? 286 to 290 °C

Recorded melting point for CSc1ccc(-c2c(Cl)nc(Cl)nc2-c2ccc(Cl)cc2)cc1 , please? 144 to 146 °C

Recorded melting point for Cc1ccc(-c2nc(C(F)(F)F)nc(NN)c2-c2ccccc2)cc1 , please? 188 to 191 °C

Recorded melting point for NNc1nc(C(F)(F)F)nc(-c2ccccc2)c1-c1ccccc1 , please? 182 to 186 °C
